Source listed as PubChem BioAssay (NCI).

# Test system: SW-620 colon
# assay_overview: NCI-60 one-dose screen, 48 h (100 = growth as untreated, 0 = no growth, -100 = all killed)
# assay_conditions: 10 µM unless noted
This is part of a sample that, as a whole, favours compounds with a hit. Of some 83,000 tested, about 20% had one in any assay. Activity calls are given as the source filed them. How the source made its calls: active means growth percent below 10; inactive means the rest.
# Lookup of reported growth keyed by entry

Here is how some molecules turned out for growth.
# molecule, growth
records = [
    ("C[C@@H]1COCCN1c1cc(C2([S@](C)(=N)=O)CC2)nc(-c2ccnc3[nH]ccc23)n1", "43.7% (inactive)"),
    ("COc1cc2ncnc(Oc3cccc(NC(=O)Nc4cc(C(C)(C)C(F)(F)F)on4)c3)c2cc1OC", "27.4% (inactive)"),
    ("CCc1cc2c(c3ccc(C(=O)CBr)cc13)CCCC2", "111% (inactive)"),
]

Exam item: Query for SW-620 colon: what growth does the record show for CCCCCCCCCCCC[n+]1ccccc1 ?
Marked response: 10.7% (inactive)

Exam item: Query for SW-620 colon: what growth does the record show for Cc1sc2c(c1C)c(=O)nc1c(-c3nc(-c4ccccc4)cs3)n[nH]n12 ?
Marked response: 97.3% (inactive)

Exam item: Query for SW-620 colon: what growth does the record show for NC(=O)c1n[nH]n2c1nc(=O)c1c3c(sc12)CCCC3 ?
Marked response: 100% (inactive)

Exam item: Query for SW-620 colon: what growth does the record show for CN1CC[C@@H](c2c(O)cc(O)c3c(=O)cc(-c4ccccc4Cl)oc23)[C@@H]1CO ?
Marked response: 4.02% (active)

* * *

# Test system: NCI-H23 lung
# assay_overview: NCI-60 one-dose screen, 48 h (100 = growth as untreated, 0 = no growth, -100 = all killed)
# assay_conditions: 10 µM unless noted
Compounds without any hit were thinned out: in the full panel of roughly 83,000, 20% have a hit. Active and inactive are the calls of the source. The calls were made as follows: active = growth percent below 10; inactive = the rest.
measurement_name: growth

Here is how some molecules turned out for growth.
# molecule, val
measured = [
    ("[2H]C1([2H])[C@H](C)O[C@H](C)C([2H])([2H])N1c1ccc(NC(=O)c2cccc(-c3ccc(OC(F)(F)F)cc3)c2C)cn1", "58.5% (inactive)"),
    ("COc1cc(NC2CCC(=O)N2c2ccc(Cl)cc2Cl)cc(OC)c1OC (stereo not drawn)", "99.4% (inactive)"),
    ("O=C(Cc1ccccc1)Nc1nnc(NC2CCN(c3nnc(NC(=O)Cc4ccccc4)s3)CC2)s1", "96.1% (inactive)"),
    ("Cc1c(N)ccc(-c2ccc(N)c(C)c2S(=O)(=O)O)c1S(=O)(=O)O", "98% (inactive)"),
    ("C=C1[C@@H](O)C[C@H]2C(C)(C)C[C@H](Cl)C[C@]2(C)[C@H]1C[C@H](O)[C@H]1CC(=O)NC1=O", "-36.2% (active)"),
    ("N#CCNC(=O)c1ccc(-c2ccnc(Nc3ccc(N4CCOCC4)cc3)n2)cc1", "29.6% (inactive)"),
    ("CCCCCCCC(=O)SCC/C=C/[C@@H]1CC(=O)NCc2cc(ccn2)C2=N[C@@](C)(CS2)C(=O)N[C@@H](C(C)C)C(=O)O1", "2.97% (active)"),
]

Exam item: What does the data say about its growth? Entry: CCOc1cc2ncc(C#N)c(Nc3ccc(F)c(Cl)c3)c2cc1NC(=O)/C=C/CN(C)C
Marked response: -28.5% (active)

* * *

# System: SNB-75 CNS
# assay_overview: NCI-60 one-dose screen, 48 h
# assay_conditions: 10 µM unless noted
The panel holds about 83,000 compounds, 20% with a hit somewhere; the sample as a whole holds those more often. Activity calls are given as the source filed them. How the source made its calls: active means growth percent below 10; inactive means the rest.
Would you mind answering with one of these outcomes? active, inactive

Please review the entries below; each comes with its answer.
# compound, class_name
records = [
    ("O=C(NC[C@H](O)CO)c1ccncc1Nc1ccc(I)cc1F", "inactive"),
    ("CCn1cc(-c2ccnc3[nH]c(-c4cccc(CN(C)C)c4)cc23)c(-c2ccc(NC(=O)N(C)C)cc2)n1", "active"),
    ("Brc1ccc([I+]c2ccc(Br)cc2)cc1", "active"),
]

Exam item: Per the records of this test, what outcome belongs to COC(=O)CNC(=O)[C@@H](OC)[C@@H]1Cc2cc3cc(OC4CC(OC5CC(O)C(O)C(C)O5)C(O)C(C)O4)c(C)c(O)c3c(O)c2C(=O)[C@H]1OC1CC(OC2CC(OC3CC(C)(O)C(O)C(C)O3)C(O)C(C)O2)C(O)C(C)O1 (some centres undefined) ?
Marked response: active

* * *

# Tested on: COLO 205 colon
# assay_overview: NCI-60 one-dose screen, 48 h (100 = growth as untreated, 0 = no growth, -100 = all killed)
# assay_conditions: 10 µM unless noted
About 83,000 compounds went through this panel and 20% of them were active in at least one assay; those are over-represented in the sample as a whole.
Please use true for growth under 90% and false for everything else, ties included.

Please review the entries below; each comes with its answer.
# compound, class_name
rows = [
    ("CN1CCN(c2ccc(OC(F)(F)F)c(Nc3ncc4c(n3)-c3c(c(C(N)=O)nn3CCO)CC4)c2)CC1", "true"),
    ("CC(C)[C@@H](C)/C=C/[C@@H](C)[C@H]1CCC2=C3C=CC4=CC(=O)CC[C@]4(C)[C@H]3CC[C@@]21C", "false"),
    ("O=C1C=CC2(NN=C(c3ccccc3)N2c2ccc(Cl)cc2)c2cccc(O)c21 (stereo not given)", "false"),
    ("COc1cc2c(c(OC)c1)C1c3ccccc3NC(=O)N1CC2 (stereo not given)", "true"),
]

Kindly consider the entry below.
Exam item: Here's an entry: CCN(CC)CCNC(=O)c1c(C)[nH]c(/C=C2\C(=O)Nc3ccc(F)cc32)c1C . Is its growth below 90%?
Marked response: true

* * *

# Tested on: NCI-H322M lung
# assay_overview: NCI-60 one-dose screen, 48 h (100 = growth as untreated, 0 = no growth, -100 = all killed)
# assay_conditions: 10 µM unless noted
This is part of a sample that, as a whole, favours compounds with a hit. Of some 83,000 tested, about 20% had one in any assay. Activity calls are given as the source filed them. How the source made its calls: active means growth percent below 10; inactive means the rest.
# Lookup of reported growth keyed by entry

Here is how some compounds turned out for growth.
# molecule, growth
rows = [
    ("O=C(NCCO)Nc1ccc(-c2nc(N3CCOCC3)c3cccn3n2)cc1", "18% (inactive)"),
    ("O=C(Nc1ccc(N=Nc2ccccc2)cc1)c1cccc2ccccc12", "77.9% (inactive)"),
    ("CNC(=O)c1cc(Oc2ccc(NC(=O)Nc3cc(C(C)(C)C)nn3-c3ccc4ncccc4c3)c(F)c2)ccn1", "-17.8% (active)"),
]

Exam item: What does the data say about its growth? Entry: COC(=O)[C@]12CC[C@@H](C)[C@H](C)[C@@H]1C1=CC[C@@H]3[C@@]4(C)C[C@@H](OC(=O)/C=C/c5ccccc5)[C@H](O)[C@@](C)(CO)[C@@H]4[C@H](O)C[C@@]3(C)[C@]1(C)CC2
Marked response: 37.9% (inactive)

* * *

# Test system: SF-539 CNS
# assay_overview: NCI-60 one-dose screen, 48 h (100 = growth as untreated, 0 = no growth, -100 = all killed)
# assay_conditions: 10 µM unless noted
Compounds without any hit were thinned out: in the full panel of roughly 83,000, 20% have a hit. Active and inactive are the calls of the source. The calls were made as follows: active = growth percent below 10; inactive = the rest.
measurement_name: growth

Here is how some molecules turned out for growth.
# molecule, experimental_system, measurement_name, val
data = [
    ("N#Cc1c(-c2ccc(Cl)cc2)csc1NC(=O)Nc1cccc(C(F)(F)F)c1", "SF-539 CNS", "growth", "37.9% (inactive)"),
    ("C/C(=C(/c1ccc(Cl)cc1)c1ccc(OCCN2CCCCC2)cc1)c1ccccc1", "SF-539 CNS", "growth", "69.6% (inactive)"),
]

Exam item: What does the data say about its growth? Entry: Cc1c(CN2CCN(C(=O)[C@H](C)O)CC2)sc2c(N3CCOCC3)nc(-c3cnc(N)nc3)nc12
Marked response: -47.5% (active)

Exam item: What does the data say about its growth? Entry: CNC(=O)c1nn(C)c2c1C(C)(C)Cc1cnc(Nc3ccc(N4CCN(C)CC4)cc3)nc1-2
Marked response: -28.6% (active)

Exam item: What does the data say about its growth? Entry: NC(=O)Nc1cc(-c2cccc(F)c2)sc1C(=O)N[C@H]1CCCNC1
Marked response: -77.5% (active)

* * *

# Lookup of reported growth keyed by entry
# Tested on: HCT-15 colon
# assay_overview: NCI-60 one-dose screen, 48 h (100 = growth as untreated, 0 = no growth, -100 = all killed)
# assay_conditions: 10 µM unless noted
The panel holds about 83,000 compounds, 20% with a hit somewhere; the sample as a whole holds those more often.
Note: unit % is implicit; provide only the numeric part.

# compound, value_unit, growth
measured = [
    ("CC(C)=CCc1cc2c(cc1O)C1=C(C(=O)C3=C(NCCS3(=O)=O)C1=O)C(C=C(C)C)O2 (stereo not drawn)", "%", 39.8),
    ("COc1ccc(-n2c(=O)c3ccccc3n(Cc3ccc(C(=O)NO)cc3)c2=O)cc1", "%", 61.3),
    ("O=S1(=O)OC(c2cc(Cl)c(O)c(Br)c2)(c2cc(Cl)c(O)c(Br)c2)c2ccccc21", "%", 105),
]

Exam item: What does the data say about its growth? Entry: CC(C)c1ccc(/C=N/Nc2nc3ccccc3s2)cc1
Marked response: 83.9

Exam item: What does the data say about its growth? Entry: CC1(C)NC(=O)c2[nH]c3c(Cl)c(Cl)ccc3c2C1C#N (stereo not drawn)
Marked response: 87.9

Exam item: What does the data say about its growth? Entry: Cc1cc(Oc2ccccc2)ccc1Nc1ncnc2ccc(-c3cnc(Cl)c(NS(C)(=O)=O)c3)cc12
Marked response: 21.6
